Tested on: NCI-H23
Assay: NCI tumour cell line growth inhibition, 48 h
The source made the active and inactive calls. No stated cut-off is given here; in the data, active = GI50 up to about 1.1 µM and inactive = higher.
Parameter GI50: see the listing below.

These solved cases illustrate the format of a correct answer.
Compound: NC(=O)/C(=N\NC(=O)c1cc2ccccc2cc1O)C1C(=O)N(c2ccccc2)N=C1N (centres undefined)
Measured target: NCI-H23
GI50: 20.3 µM (inactive)
--
Compound: NC(=O)CCC(NC(=O)c1cccc2c(=O)c3ccccc3[nH]c12)C(=O)O (centres undefined)
Measured target: NCI-H23
GI50: > 100 µM (inactive)
--
Compound: O=C(COc1ccc(OCC(=O)N2C(=O)CS/C2=N\c2ccccc2)cc1)N1C(=O)CS/C1=N\c1ccccc1
Measured target: NCI-H23
GI50: 19.5 µM (inactive)
--
Compound: COC(=O)CNC(=O)/C=C/[C@H](O[Si](C)(C)C(C)(C)C)[C@H](/C=C/C(=O)NCC(=O)OC)O[Si](C)(C)C(C)(C)C
Measured target: NCI-H23
GI50: > 25 µM (inactive)
--
Compound: CC(C)(C)OC(=O)NCC(=O)NC1C/C(=N\O)c2sccc21 (centres undefined)
Measured target: NCI-H23
GI50: > 100 µM (inactive)

Turning now to a further compound:
Q: Give the reported value of GI50 for this record: O=C(Nc1cc([N+](=O)[O-])cc([N+](=O)[O-])c1)OC1C2CCC1C1OC1C2 (centres undefined)
A: > 50 µM (inactive)
